biological target: Serum amyloid P-component (Homo sapiens) (UniProt P02743); assay: Inhibition of calcium dependent [125I]serum amyloid P-component (unknown origin) binding to immobilized chicken erythrocyte native long chromatin at 200 uM incubated for 2 hrs by gamma counting relative to control
Sequence (P02743 whole entry): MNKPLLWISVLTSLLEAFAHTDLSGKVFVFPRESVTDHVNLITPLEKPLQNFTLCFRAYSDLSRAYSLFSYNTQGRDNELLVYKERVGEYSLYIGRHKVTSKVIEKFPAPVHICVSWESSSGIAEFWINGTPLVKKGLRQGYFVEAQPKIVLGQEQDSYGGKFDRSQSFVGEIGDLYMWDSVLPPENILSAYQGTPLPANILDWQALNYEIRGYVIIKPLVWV
# inhibition per entry
Measured Metric: inhibition (%)

* O=C(O)[C@H]1CCCN1C(=O)Cc1cccc(CC(=O)N2CCC[C@@H]2C(=O)O)c1 | 94
* O=C(O)[C@H]1CCCN1C(=O)Cc1ccc(CC(=O)N2CCC[C@@H]2C(=O)O)cc1 | 66
* C[N+](C)(C)CCOP(=O)([O-])O | 3
* O=C(O)[C@H]1CCCN1C(=O)COc1ccccc1OCC(=O)N1CCC[C@@H]1C(=O)O | 89
* O=C(O)[C@H]1CCCN1C(=O)Cc1cc(O)c(CC(=O)N2CCC[C@@H]2C(=O)O)cc1O | 88
* O=C(O)[C@H]1CCCN1C(=O)[C@H]1CC[C@@H](C(=O)N2CCC[C@@H]2C(=O)O)CC1 | 94
* NCCOP(=O)(O)O | 59
* Cc1c(OCC(=O)N2CCC[C@@H]2C(=O)O)cccc1OCC(=O)N1CCC[C@@H]1C(=O)O | 95
* O=C(O)[C@H]1CCCN1C(=O)Cc1ccc(CC(=O)N2CCC[C@@H]2C(=O)O)c2ccccc12 | 96
* O=C(O)[C@H]1CCCN1C(=O)COc1ccc(OCC(=O)N2CCC[C@@H]2C(=O)O)cc1 | 75

----------
molecular target: Serum amyloid P-component (Homo sapiens) (UniProt P02743); assay: Inhibition of calcium dependent [125I]serum amyloid P-component (unknown origin) binding to immobilized chicken erythrocyte native long chromatin at 200 nM incubated for 2 hrs by gamma counting relative to control
# binning rule on inhibition: range 1 = under 1%, range 2 = from 1% up to 4%, range 3 = 4% and over

- C[N+](C)(C)CCOP(=O)([O-])O: range 2
- O=C(O)[C@H]1CCCN1C(=O)Cc1cc(O)c(CC(=O)N2CCC[C@@H]2C(=O)O)cc1O: range 1
- COc1cccc(OCC(=O)N2CCC[C@@H]2C(=O)O)c1OCC(=O)N1CCC[C@@H]1C(=O)O: range 3
- O=C(O)[C@H]1CCCN1C(=O)COc1cccc2c(OCC(=O)N3CCC[C@@H]3C(=O)O)cccc12: range 3
- Cc1c(OCC(=O)N2CCC[C@@H]2C(=O)O)cccc1OCC(=O)N1CCC[C@@H]1C(=O)O: range 1
- NCCOP(=O)(O)O: range 2
- O=C(O)[C@H]1CCCN1C(=O)Cc1cccc(CC(=O)N2CCC[C@@H]2C(=O)O)c1: range 1
- O=C(O)[C@H]1CCCN1C(=O)COc1ccccc1OCC(=O)N1CCC[C@@H]1C(=O)O: range 3
- O=C(O)[C@H]1CCCN1C(=O)Cc1ccc(CC(=O)N2CCC[C@@H]2C(=O)O)c2ccccc12: range 3

----------
target: Serum amyloid P-component (Homo sapiens) (UniProt P02743); assay: Inhibition of calcium dependent [125I]serum amyloid P-component (unknown origin) binding to immobilized influenza virus A/Shanghai/24/90 at 200 nM incubated for 2 hrs by fluorescence/electron microscopy relative to control
Lab note: compare inhibition against 20%. Equal or greater, write y. Smaller, write n.

- O=C(O)[C@H]1CCCN1C(=O)Cc1cc(O)c(CC(=O)N2CCC[C@@H]2C(=O)O)cc1O: y
- O=C(O)[C@H]1CCCN1C(=O)COc1ccccc1OCC(=O)N1CCC[C@@H]1C(=O)O: y
- C[N+](C)(C)CCOP(=O)([O-])O: n
- O=C(O)[C@H]1CCCN1C(=O)COc1cccc2c(OCC(=O)N3CCC[C@@H]3C(=O)O)cccc12: y
- O=C(O)[C@H]1CCCN1C(=O)COc1ccc(OCC(=O)N2CCC[C@@H]2C(=O)O)cc1: n
